Reported Ratio IC50 values are given for each entry in this list.
Test: Resistant index, ratio of IC50 for cytotoxicity against human CEM/ADR5000 cells to IC50 for cytotoxicity against human CCRF-CEM cells
Type: functional

State the recorded Ratio IC50 for this entry: C=CCOc1ccc(C=O)cc1OC
0.25

Continuing:
# Ratio IC50 lookup, item C#CCOc1ccc(/C=C/C(=O)c2cccc(Br)c2)cc1OC
0.15

Any idea what its Ratio IC50 is? The compound is C=CCc1cc(C(C)=O)ccc1OCC=C(C)C
0.32

Could you share which Ratio IC50 value was measured for C#CCOc1ccc(/C=C/C(=O)c2cccc(C)c2)cc1OC ?
0.16

Look up Ratio IC50 for this compound: C#CCOc1ccc(/C=C/C(=O)c2ccccc2C)cc1OC
0.13

Given the compound C#CCOc1ccc(/C=C/C(=O)c2ccc(OC)c(OC)c2)cc1OC , what is its reported Ratio IC50?
0.17

If you can, please state the reported Ratio IC50 value of C#CCOc1ccc(/C=C/C(=O)c2ccc(-n3ccnc3)cc2)cc1OC .
0.07

Which Ratio IC50 is reported for this compound? C#CCOc1ccc(/C=C/C(=O)c2ccc(C(C)C)cc2)cc1OC
0.23

I have this compound here, C#CCOc1ccc(/C=C/C(=O)c2cccc(OC)c2)cc1OC , and I need its recorded Ratio IC50.
0.2
